system: NLRP3 inflammasome; test: cytokines released into the culture medium after LPS+ATP activation (ELISA); type: cell-based; conditions: estimated inhibitory capacity; Figure 4A; read-out: IC50 (IL-1β) release into the culture medium
MEASURED_PROPERTY: IC50 (nM)
Give your result in nM as a bare value.

Tested system NLRP3 inflammasome; IC50 recorded for CS(=O)(=O)NCc1cccc2ccccc12 [Compound C3] was 5.38
